All values here come from the Immune Epitope Database (IEDB).

Target: HLA-A*68:02
Experiment: IEDB peptide-MHC binding, purified MHC/competitive/radioactivity; filed as Kd, often an IC50 or EC50 that approximates it; bounds were set here for any values at or beyond the usual limits of such assays
Conditions: source organism: Dengue virus 3 Martinique/1243/1999
Readings of Kd for the listed sequences
Report as a plain number; the unit nM is understood.

Solved cases below.
FTMGVLCLAI    11.1
ETACLGKAYA    3.62
IVLEFFMMV    558

Lookup: Returns the measured Kd for the input sequence. Input: RTATLILAGV
Found: 0.26

====

Molecular target: HLA-A*11:01
Assay: IEDB peptide-MHC binding, purified MHC/competitive/fluorescence; filed as Kd, often an IC50 or EC50 that approximates it; bounds were set here for any values at or beyond the usual limits of such assays
Conditions: source organism: Human immunodeficiency virus 1
Quantity Name: Kd (nM)
Provide the reading as a plain figure in nM.

KSLFNTIATLY    110

Now for a further sequence.
Lookup: Bench note: what Kd did RSLFNTIATLY show?
Found: 255
